Molecular target: T1, human c-kit (recombinant, on BIAcore chip or beads) (human, UniProt P10721 26-524)
T1 construct: extracellular domain; also called hcKIT; biotinylated human c-kit
T1 sequence (P10721 26-524): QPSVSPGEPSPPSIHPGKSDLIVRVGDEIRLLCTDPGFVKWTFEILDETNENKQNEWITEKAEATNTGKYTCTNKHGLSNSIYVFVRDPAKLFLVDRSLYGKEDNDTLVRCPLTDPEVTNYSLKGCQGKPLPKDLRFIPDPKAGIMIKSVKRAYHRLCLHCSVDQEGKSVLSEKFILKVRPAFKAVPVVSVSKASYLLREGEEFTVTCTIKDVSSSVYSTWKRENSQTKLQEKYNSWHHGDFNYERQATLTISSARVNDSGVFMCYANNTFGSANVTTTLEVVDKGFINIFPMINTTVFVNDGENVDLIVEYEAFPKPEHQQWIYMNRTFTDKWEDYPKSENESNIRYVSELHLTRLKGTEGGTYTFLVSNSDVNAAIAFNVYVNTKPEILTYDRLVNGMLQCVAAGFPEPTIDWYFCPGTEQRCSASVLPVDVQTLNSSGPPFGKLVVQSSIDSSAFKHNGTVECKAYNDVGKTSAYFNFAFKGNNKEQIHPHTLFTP
Assay: BIAcore, dAb at 1000 and 500 nM
pKd: −log10 of the molar value.
VALUE_KIND: pKd

Take a look at these entries with their results.
>  <BINDER>
DOM28h-66 (other, dAb, C-terminal FLAG tag (pDOM10); also called DOM28h-066) EVQLLESGGGLVQPGGSLRLSCAASGFTFPLYEMHWVRQAPGKGLEWVSRISPTGATTYYADSVKGRFTISRDNSKNTLYLQMNSLRAEDTAVYYCAKDRRGRAGVTFDYWGQGTLVTVSS

>  <pKd>
5.54

$$$$
>  <BINDER>
DOM28h-94 (other, VH dAb, C-terminal FLAG tag (pDOM10); also called DOM28h-094) VH: EVQLLESGGGLVQPGGSLRLSCAASGFTFFPYAMGWVRQAPGKGLEWVSFISGRGDTTYYADSVKGRFTISRDNSKNTLYLQMNSLRAEDTAVYYCAKTATSDLWNFDYWGQGTLVTVSS

>  <pKd>
4.66

$$$$

(a) DOM28h-84 (other, dAb, C-terminal FLAG tag (pDOM10); also called DOM28h-084) EVQLLESGGGLVQPGGSLRLSCAASGFTFSSYGMSWVRQAPGKGLEWVSWISGTGSGTYYADSVKGRFTISRDNSKNTLYLQMNSLRAEDTAVYYCAKGVPGNNRALFDYWGQGTLVTVSS
(b) DOM28h-33 (other, dAb, C-terminal FLAG tag (pDOM10); also called DOM28h-033) EVQLLESGGGLVQPGGSLRLSCAVSGFTFWNYRMGWVRQAPGKGLEWVSSITPQGTHTYYADSVKGRFTISRDNSKNTLYLQMNSLRAEDTAVYYCAKILSMSENHFDYWGQGTLVTVSS
(c) DOM28h-110 (other, dAb, C-terminal FLAG tag (pDOM10)) EVQLLESGGGLVQPGGSLRLSCAASGFTFRKYAMMWVRQAPGKGLEWVSTITASGGGTYYADSVKGRFTISRDNSKNTLYLQMNSLRAEDTAVYYCAKPLNQYATQFDYWGQGTLVTVSS
(d) DOM28h-5 (other, dAb, C-terminal FLAG tag (pDOM10); also called DOM28h-005) DIQMTQSPSSLSASVGDRVTITCRASQWIGTALTWYQQKPGKAPKLLIYRGSYLQSGVPSRFSGSGSGTDFTLTISSLQPEDFATYYCQQRYFHPYTFGQGTRVEIKR
[ask] Put the items in order so that reported pKd rises from first to last. Would you mind listing the labels in the order requested?
[reply] c, a, d, b
